tested on: SK-LU-1; test: relative viability (nuclei count vs DMSO), 5 days (fraction); higher = more cells survive; conditions: first compound 2.53 µM
PARAMETER: relative viability
# print the numeric value only

Q: # return recorded relative viability for input CCCCCCCCCCCC1=C(O)C(=O)C=C(O)C1=O [Embelin] + CC(=O)c1c(C)c2cnc(Nc3ccc(N4CCNCC4)cn3)nc2n(C2CCCC2)c1=O [Palbociclib] (partner 0.5 µM)
Ans: 0.621

Q: Give the measured relative viability for CCCCCCCCCCCC1=C(O)C(=O)C=C(O)C1=O [Embelin] + Cc1cc(Nc2cc(N3CCN(C)CC3)nc(Sc3ccc(NC(=O)C4CC4)cc3)n2)n[nH]1 [Tozasertib] (partner 0.1 µM)
Ans: 0.379

Q: Give recorded relative viability. CCCCCCCCCCCC1=C(O)C(=O)C=C(O)C1=O [Embelin] + Nc1nc2[nH]cc(CCc3ccc(C(=O)N[C@@H](CCC(=O)O)C(=O)O)cc3)c2c(=O)[nH]1 [Pemetrexed] (partner 0.2 µM)
Ans: 0.962

Q: Specify reported relative viability for the molecule shown: CCCCCCCCCCCC1=C(O)C(=O)C=C(O)C1=O [Embelin] + CC(=O)Nc1cccc(-n2c(=O)n(C3CC3)c(=O)c3c(Nc4ccc(I)cc4F)n(C)c(=O)c(C)c32)c1 [Trametinib] (partner 0.02 µM)
Ans: 0.691

* * *

test system: NCI-H1915; assay: relative viability (nuclei count vs DMSO), 5 days (fraction); higher = more cells survive; details: first compound 1.265 µM
Cut-off 0.8 on relative viability: below means Met, at or above means Not met.

Q: Is the reported relative viability for COc1cc(N2CCC(C(N)=O)CC2)ccc1Nc1nc(N)c(Cl)c(Nc2ccccc2S(=O)(=O)C(C)C)n1 [HG-5-88-01] + CC1(C)CCC(c2ccc(Cl)cc2)=C(CN2CCN(c3ccc(C(=O)NS(=O)(=O)c4ccc(N[C@H](CCN5CCOCC5)CSc5ccccc5)c(S(=O)(=O)C(F)(F)F)c4)cc3)CC2)C1 [Navitoclax] (partner 0.5 µM) strictly below 0.8?
Ans: Not met

Q: API: query returns whether the compound falls strictly under 0.8 in relative viability. Query: Clc1ccc(Nc2nnc(Cc3ccncc3)c3ccccc23)cc1 [Vatalanib] + CC(C)C[C@H](NC(=O)[C@H](Cc1ccccc1)NC(=O)c1cnccn1)B(O)O [Bortezomib] (partner 0.002 µM)
Ans: Not met

Q: Consider the compound COc1cc(N2CCC(C(N)=O)CC2)ccc1Nc1nc(N)c(Cl)c(Nc2ccccc2S(=O)(=O)C(C)C)n1 [HG-5-88-01] + CS(=O)(=O)N1CCN(Cc2cc3nc(-c4cccc5[nH]ncc45)nc(N4CCOCC4)c3s2)CC1 [Pictilisib] (partner 1 µM) . Is its relative viability strictly less than 0.8?
Ans: Not met

Q: A record lists COc1cc(N2CCC(C(N)=O)CC2)ccc1Nc1nc(N)c(Cl)c(Nc2ccccc2S(=O)(=O)C(C)C)n1 [HG-5-88-01] + Cc1nc(NC(=O)N2CCC[C@H]2C(N)=O)sc1-c1ccnc(C(C)(C)C(F)(F)F)c1 [Alpelisib] (partner 2 µM) . Is its relative viability below 0.8?
Ans: Not met

Q: # check: relative viability < 0.8 for COc1cc(N2CCC(C(N)=O)CC2)ccc1Nc1nc(N)c(Cl)c(Nc2ccccc2S(=O)(=O)C(C)C)n1 [HG-5-88-01] + CC(C)C[C@H](NC(=O)[C@H](Cc1ccccc1)NC(=O)c1cnccn1)B(O)O [Bortezomib] (partner 0.002 µM)
Ans: Not met

Q: Could you please tell me whether relative viability recorded for Clc1ccc(Nc2nnc(Cc3ccncc3)c3ccccc23)cc1 [Vatalanib] + CS(=O)(=O)CCNCc1ccc(-c2ccc3ncnc(Nc4ccc(OCc5cccc(F)c5)c(Cl)c4)c3c2)o1 [Lapatinib] (partner 2 µM) is less than 0.8?
Ans: Not met

Q: Decide: relative viability of Clc1ccc(Nc2nnc(Cc3ccncc3)c3ccccc23)cc1 [Vatalanib] + COc1cccc2cc(-c3nc([C@H]4CC[C@H](C(=O)O)CC4)n4ncnc(N)c34)[nH]c12 [OSI-027] (partner 0.5 µM) strictly below 0.8?
Ans: Met

Q: Please state whether relative viability is below 0.8 for Clc1ccc(Nc2nnc(Cc3ccncc3)c3ccccc23)cc1 [Vatalanib] + CC(=O)c1c(C)c2cnc(Nc3ccc(N4CCNCC4)cn3)nc2n(C2CCCC2)c1=O [Palbociclib] (partner 0.5 µM)
Ans: Met

Q: Field: below-cutoff. Rule: recorded relative viability strictly less than 0.8. Subject: Clc1ccc(Nc2nnc(Cc3ccncc3)c3ccccc23)cc1 [Vatalanib] + Nc1ncn([C@H]2C[C@H](O)[C@@H](CO)O2)c(=O)n1 [Decitabine] (partner 2 µM)
Ans: Met

Q: relative viability under 0.8? Item: COc1cc(N2CCC(C(N)=O)CC2)ccc1Nc1nc(N)c(Cl)c(Nc2ccccc2S(=O)(=O)C(C)C)n1 [HG-5-88-01] + NC(=O)Nc1cc(-c2cccc(F)c2)sc1C(=O)N[C@H]1CCCNC1 [AZD7762] (partner 0.2 µM)
Ans: Met

Q: Quick check: relative viability of COc1cc(N2CCC(C(N)=O)CC2)ccc1Nc1nc(N)c(Cl)c(Nc2ccccc2S(=O)(=O)C(C)C)n1 [HG-5-88-01] + N=C(N)NC(=N)NCCc1ccccc1 [Phenformin] (partner 250 µM) under 0.8?
Ans: Met

* * *

test system: EMC-BAC-2; assay: relative viability (nuclei count vs DMSO), 5 days (fraction); higher = more cells survive; conditions: first compound 1.265 µM
PARAMETER: relative viability
Please reply with the number alone, leaving off any unit.

Q: Return value of relative viability for input Clc1ccc(Nc2nnc(Cc3ccncc3)c3ccccc23)cc1 [Vatalanib] + CC1(C)CCC(c2ccc(Cl)cc2)=C(CN2CCN(c3ccc(C(=O)NS(=O)(=O)c4ccc(N[C@H](CCN5CCOCC5)CSc5ccccc5)c(S(=O)(=O)C(F)(F)F)c4)cc3)CC2)C1 [Navitoclax] (partner 0.5 µM) , no commentary.
Ans: 1.15

Q: Indicate the recorded relative viability value for this compound: Clc1ccc(Nc2nnc(Cc3ccncc3)c3ccccc23)cc1 [Vatalanib] + CS(=O)(=O)N1CCN(Cc2cc3nc(-c4cccc5[nH]ncc45)nc(N4CCOCC4)c3s2)CC1 [Pictilisib] (partner 1 µM)
Ans: 0.533

Q: Identify the reported relative viability for the following entry. COc1cc(N2CCC(C(N)=O)CC2)ccc1Nc1nc(N)c(Cl)c(Nc2ccccc2S(=O)(=O)C(C)C)n1 [HG-5-88-01] + COc1cc2c(Oc3ccc(NC(=O)C4(C(=O)Nc5ccc(F)cc5)CC4)cc3F)ccnc2cc1OCCCN1CCOCC1 [Foretinib] (partner 0.25 µM)
Ans: 0.787

Q: Report relative viability for Clc1ccc(Nc2nnc(Cc3ccncc3)c3ccccc23)cc1 [Vatalanib] + Cc1cc(Nc2cc(N3CCN(C)CC3)nc(Sc3ccc(NC(=O)C4CC4)cc3)n2)n[nH]1 [Tozasertib] (partner 0.1 µM)
Ans: 0.264

* * *

test system: NCI-H358; test: relative viability (nuclei count vs DMSO), 5 days (fraction); higher = more cells survive; details: first compound 0.1265 µM
PARAMETER: relative viability

Q: Supply reported relative viability belonging to this molecule: C[C@@H]1CN(CC(=O)Nc2ccc3c(c2)Cc2cccc(-c4cc(=O)cc(N5CCOCC5)o4)c2S3)C[C@H](C)O1 + Cc1nc(Nc2ncc(C(=O)Nc3c(C)cccc3Cl)s2)cc(N2CCN(CCO)CC2)n1 [Dasatinib] (partner 0.075 µM)
Ans: 0.163

Q: Check the records and state relative viability for COc1cc(N2CCC(C(N)=O)CC2)ccc1Nc1nc(N)c(Cl)c(Nc2ccccc2S(=O)(=O)C(C)C)n1 [HG-5-88-01] + CC(=O)c1c(C)c2cnc(Nc3ccc(N4CCNCC4)cn3)nc2n(C2CCCC2)c1=O [Palbociclib] (partner 0.5 µM)
Ans: 0.131

Q: Output measured relative viability for this item: COc1cc(N2CCC(C(N)=O)CC2)ccc1Nc1nc(N)c(Cl)c(Nc2ccccc2S(=O)(=O)C(C)C)n1 [HG-5-88-01] + C[C@@H](Oc1cc(-c2cnn(C3CCNCC3)c2)cnc1N)c1c(Cl)ccc(F)c1Cl [Crizotinib] (partner 1 µM)
Ans: 0.461

Q: Fill in relative viability for record COc1cc(N2CCC(C(N)=O)CC2)ccc1Nc1nc(N)c(Cl)c(Nc2ccccc2S(=O)(=O)C(C)C)n1 [HG-5-88-01] + O=C(c1cc(Cc2n[nH]c(=O)c3ccccc23)ccc1F)N1CCN(C(=O)C2CC2)CC1 [Olaparib] (partner 8 µM)
Ans: 0.568

* * *

system: UMC-11; test: relative viability (nuclei count vs DMSO), 5 days (fraction); higher = more cells survive; conditions: first compound 4 µM
PARAMETER: relative viability
Please state the value as a number alone, without comment.

Q: Consider the compound Clc1ccc(Nc2nnc(Cc3ccncc3)c3ccccc23)cc1 [Vatalanib] + CS(=O)(=O)CCNCc1ccc(-c2ccc3ncnc(Nc4ccc(OCc5cccc(F)c5)c(Cl)c4)c3c2)o1 [Lapatinib] (partner 2 µM) and give its recorded relative viability.
Ans: 1.13

Q: Please report the measured relative viability for Clc1ccc(Nc2nnc(Cc3ccncc3)c3ccccc23)cc1 [Vatalanib] + Nc1nc2[nH]cc(CCc3ccc(C(=O)N[C@@H](CCC(=O)O)C(=O)O)cc3)c2c(=O)[nH]1 [Pemetrexed] (partner 0.2 µM)
Ans: 0.794

Q: Return relative viability (reported value) for this compound: COc1cc(N2CCC(C(N)=O)CC2)ccc1Nc1nc(N)c(Cl)c(Nc2ccccc2S(=O)(=O)C(C)C)n1 [HG-5-88-01] + Nc1ncn([C@H]2C[C@H](O)[C@@H](CO)O2)c(=O)n1 [Decitabine] (partner 2 µM)
Ans: 0.672

Q: Give the reported relative viability for this compound. C[C@@H]1CN(CC(=O)Nc2ccc3c(c2)Cc2cccc(-c4cc(=O)cc(N5CCOCC5)o4)c2S3)C[C@H](C)O1 + Nc1ncn([C@H]2C[C@H](O)[C@@H](CO)O2)c(=O)n1 [Decitabine] (partner 2 µM)
Ans: 0.513
